Taken from patent US20220363718A1.

- assayed.target: T1, Biotinylated human TSLP (human, biotinylated)
- T1 construct: also called hTSLP; thymic stromal lymphopoietin
- T1 sequence (chain, as listed by the source limits assumed): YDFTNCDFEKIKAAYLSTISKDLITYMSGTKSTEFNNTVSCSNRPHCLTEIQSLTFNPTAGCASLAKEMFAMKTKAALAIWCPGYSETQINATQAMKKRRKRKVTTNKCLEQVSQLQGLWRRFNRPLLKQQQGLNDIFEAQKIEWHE
- experiment.notes: SPR, biotinylated hTSLP on streptavidin chip
*1 amine or outer side, *2 acyl side, *3 side chain or, on linkers, in order; H or OH if unused. Bridges are numbered along the chain shown (N, C = ends). Where no end group is shown, it is not given here. TATA = O=C(CC[*:1])N1CN(C(=O)CC[*:2])CN(C(=O)CC[*:3])C1
attribute.measured: Kd (nM)
I only need the number, in nM, no unit after it.

{"binder": "ACRDLDPWTCSSWWLCKPDHVDA (linker 2-10-16 via TATA) [Example 177]", "unit.text": "nM", "Kd": 580}
{"binder": "CQWXEDCWRGFC (N-term acetyl; CQW[M(O)]EDCWRGFC as printed; 3 Cys on TATA) [Example 147]", "unit.text": "nM", "Kd": 940}
{"binder": "ACEWLEDCWKGFCHSE (linker 2-8-13 via TATA) [Example 136]", "unit.text": "nM", "Kd": 520}

Now for a further binder.
Challenge: For the binder shown here, CQWLEDCWXGFC (not fully specified; N-term acetyl; CQWLEDCW[Cit]GFC as printed; 3 Cys on TATA) [Example 104] , give the reported Kd.
Response given: 180
